B1: EEHEE_rd4_0763 (parent)
chain: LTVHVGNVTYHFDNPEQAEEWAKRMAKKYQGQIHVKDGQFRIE

Variants of: B1
test-description: folding stability dG (cDNA display proteolysis); higher = more stable
test-conditions: PBS, room temperature
Lab note: compare folding stability dG against 7 kJ/mol. Equal or greater, write label 1. Smaller, write label 0.

Please review the entries below; each comes with its answer.
| mutation-string | class |
| --- | --- |
| V35D | label 0 |
| Y10A | label 0 |
| R24V | label 0 |

[in] Check this variant for folding stability dG at or above 7 kJ/mol: T2S
[out] label 0

[in] Check this variant for folding stability dG at or above 7 kJ/mol: T2D
[out] label 0

[in] Check this variant for folding stability dG at or above 7 kJ/mol: G6Y
[out] label 0

[in] Check this variant for folding stability dG at or above 7 kJ/mol: G6D
[out] label 0

[in] Check this variant for folding stability dG at or above 7 kJ/mol: R24L
[out] label 1

[in] Check this variant for folding stability dG at or above 7 kJ/mol: G31L
[out] label 1

[in] Check this variant for folding stability dG at or above 7 kJ/mol: V5S
[out] label 0

[in] Check this variant for folding stability dG at or above 7 kJ/mol: K27M
[out] label 1

[in] Check this variant for folding stability dG at or above 7 kJ/mol: W21N
[out] label 0

[in] Check this variant for folding stability dG at or above 7 kJ/mol: K23R
[out] label 1

[in] Check this variant for folding stability dG at or above 7 kJ/mol: E20G
[out] label 0

[in] Check this variant for folding stability dG at or above 7 kJ/mol: K28P
[out] label 0

[in] Check this variant for folding stability dG at or above 7 kJ/mol: T2P
[out] label 0

[in] Check this variant for folding stability dG at or above 7 kJ/mol: K27T
[out] label 0

[in] Check this variant for folding stability dG at or above 7 kJ/mol: Q39E
[out] label 1

The measurements presented in this section are drawn from the MegaScale stability set (Tsuboyama et al. 2023).
